test.name: recombinant UMI read abundance after kanamycin selection (control-corrected) (log10(CPM+1)); higher = more efficient recombination; extreme values may be limits of the assay; sequences stand for … in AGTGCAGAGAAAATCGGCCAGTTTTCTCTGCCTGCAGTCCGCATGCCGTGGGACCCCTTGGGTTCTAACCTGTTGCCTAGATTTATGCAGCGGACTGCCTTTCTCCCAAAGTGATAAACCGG…AGGTTGGTTTCACT; site = the 11-nt donor
# recombinant UMI read abundance (log10) listing for each entry below
Give the figure only, with no unit attached.

TTAGCTCCATGGACCGGTTTTCCCGGTAATCCGTATTTGTG (site TTAGCTGCTCA)    0.00795

What value of recombinant UMI read abundance (log10) has been recorded for this entry: GAGCATGCATGGACCGGTTTTCCCGGTAATCCGTATTTGGT (site GGGCATGCTAC)
0.422

Same for GGACCAACATGGACCGGTTTTCCCGGTAATCCGTATTTGTA (site GGACCAACTTA)
1.09

Check TCAGAGACATGGACCGGTTTTCCCGGTAATCCGTATTTGCT (site TCAGAGACTGG) too.
2.21

Next entry: CTCGACACATGGACCGGTTTTCCCGGTAATCCGTATTTGGA (site CTCGACACTTC)
0.942

What about CCTGGAACATGGACCGGTTTTCCCGGTAATCCGTATTTGTT (site CTTGGAACTAA) ?
0.00851

Consider next the sequence CCGGGTGCATGGACCGGTTTTCCCGGTAATCCGTATTTGAT (site CCAGGTGCTAT) in the same way.
1.63

Follow-up entry: CGGAATTCATGGACCGGTTTTCCCGGTAATCCGTATTTGAA (site CGGAATTCTTT)
1.67

Please answer likewise for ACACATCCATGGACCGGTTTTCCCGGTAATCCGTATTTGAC (site TCACATCCTGT)
0.538

One more sequence: TCCCACTCATGGACCGGTTTTCCCGGTAATCCGTATTTGGG (site TCCCACTCTCC)
0.0433

Okay, and GTGTTATCATGGACCGGTTTTCCCGGTAATCCGTATTTGCT (site GTGTTATCTAG) ?
2.87

Could you do the same for ACTCATCCATGGACCGGTTTTCCCGGTAATCCGTATTTGAC (site ACTCATCCTGT) , please?
0.798

Same thing, different sequence: GTATGCACATGGACCGGTTTTCCCGGTAATCCGTATTTGCA (site GTATGCACTTG)
2.67

Then this sequence: TTAGAAACATGGACCGGTTTTCCCGGTAATCCGTATTTGAT (site TTAGAAACTAT)
2.51

Same lookup for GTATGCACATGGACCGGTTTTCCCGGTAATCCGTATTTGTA (site GTATGCACTTC) , please.
0.0256

Another sequence to check: GTAGTGGCATGGACCGGTTTTCCCGGTAATCCGTATTTGGT (site GTAGTGGCTAC)
1.85

Do the same for GATTATTCATGGACCGGTTTTCCCGGTAATCCGTATTTGCT (site GATTATGCTAG) please
0

Again, but for TCCCACACATGGACCGGTTTTCCCGGTAATCCGTATTTGTA (site GCCCACACTTA)
0.0195

###

test.name: recombinant UMI read abundance after kanamycin selection (control-corrected) (log10(CPM+1)); higher = more efficient recombination; extreme values may be limits of the assay; sequences stand for … in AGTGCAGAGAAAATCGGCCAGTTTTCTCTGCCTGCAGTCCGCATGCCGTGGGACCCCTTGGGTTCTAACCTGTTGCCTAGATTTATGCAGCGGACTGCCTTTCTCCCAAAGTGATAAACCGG…AGGTTGGTTTCACT; site = the 11-nt donor
metric: recombinant UMI read abundance (log10)
# print the numeric value only

In the examples that follow, each entry is paired with its recorded recombinant UMI read abundance (log10).
GTACTAACATGGACCGGTTTTCCCGGTAATCCGTATTTGGA (site GTACTAACTTC)    1.29
CTAATATCATGGACCGGTTTTCCCGGTAATCCGTATTTGAC (site CTAGTATCTGT)    2.29
CTAACCCCATGGACCGGTTTTCCCGGTAATCCGTATTTGTA (site CTAACCCCTTA)    1.67
AGCCAAGCATGGACCGGTTTTCCCGGTAATCCGTATTTGTT (site AGCCAAGCTAA)    1.09

Could you now look at the following sequence, please?
recombinant UMI read abundance (log10) lookup needed for CAGAACCCATGGACCGGTTTTCCCGGTAATCCGTATTTGAG (site CAGAACCCTCT) , thanks.
1.35

###

test.name: recombinant barcode read abundance after kanamycin selection (control-corrected) (log10(CPM+1)); higher = more efficient recombination; sequences stand for … in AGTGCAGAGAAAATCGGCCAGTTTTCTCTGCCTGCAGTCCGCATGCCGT…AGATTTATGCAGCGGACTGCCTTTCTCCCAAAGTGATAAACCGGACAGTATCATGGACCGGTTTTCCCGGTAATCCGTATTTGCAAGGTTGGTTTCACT; site = the 11-nt target
Heads up, the class ranges for recombinant barcode read abundance (log10) are band A: < 0.1; band B: ≥ 0.1 and < 0.5; band C: ≥ 0.5

Recorded results for 5 sequences are shown here.
AGGCCCGCTTGGGTTCTAACCTGTTGCGG (site AGGCCCGCTCC)    band C
CCTAGCACTTGGGTTCTAACCTGTTGCGA (site CCTTGCACTTC)    band A
TAGTGTTCTTGGGTTCTAACCTGTTGCCT (site TAGTGTCCTAG)    band B
TATCCGACTTGGGTTCTAACCTGTTGCCT (site TATCCGACTAG)    band C
AACGCTTCTTGGGTTCTAACCTGTTGCCT (site ACCGCTTCTAG)    band B

GET /class?item= TACGGCTCTTGGGTTCTAACCTGTTGCTT (site TACTGCTCTAA)
band A

Moving on to GCCGGGCCTTGGGTTCTAACCTGTTGCCT (site GCTGCGCCTAG)
band A

Entry CGTTAGACTTGGGTTCTAACCTGTTGCCT (site CGTTAGACTAG) please
band B

What do we get for CCATAGTCTTGGGTTCTAACCTGTTGCTT (site CCATAGTCTAA) ?
band C

Now consider TCAGGATCTTGGGTTCTAACCTGTTGCCT (site TCAGTATCTAG) .
band B

TAGCACCCTTGGGTTCTAACCTGTTGCCT (site TAGCACCCTTG) , same question.
band B

Moving on to the next sequence: CTTCGGGCTTGGGTTCTAACCTGTTGCAT (site CTTCGGGCTAT)
band C

Next up: CCAGTTACTTGGGTTCTAACCTGTTGCCT (site CCAGTCACTAG)
band B

Next up: GGGAACGCTTGGGTTCTAACCTGTTGCCT (site GGGAACGCTAG)
band C

Ok, now TAGAACTCTTGGGTTCTAACCTGTTGCCG (site TAGAACTCTGG)
band A

###

test.name: recombinant barcode read abundance after kanamycin selection (control-corrected) (log10(CPM+1)); higher = more efficient recombination; sequences stand for … in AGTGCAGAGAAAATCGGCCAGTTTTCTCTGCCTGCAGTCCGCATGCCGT…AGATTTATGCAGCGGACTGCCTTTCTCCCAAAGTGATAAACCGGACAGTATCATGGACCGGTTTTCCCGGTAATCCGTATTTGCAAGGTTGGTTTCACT; site = the 11-nt target
Listed here: items and their measured recombinant barcode read abundance (log10).
Please state the value as a number alone, without comment.

TTCTTACCTTGGGTTCTAACCTGTTGCCT (site TTCTTACCTAG)    0.654

For the sequence TTCGGAGCTTGGGTTCTAACCTGTTGCTG (site TTGGGAGCTCA) , what recombinant barcode read abundance (log10) is on record?
0.0871

Could you do the same for GACACAACTTGGGTTCTAACCTGTTGCCT (site GACCCATCTAG) , please?
0.338

What do you have for CTAAGGTCTTGGGTTCTAACCTGTTGCGT (site CTAAGGTCTAA) ?
0.31

###

test.name: recombinant barcode read abundance after kanamycin selection (control-corrected) (log10(CPM+1)); higher = more efficient recombination; sequences stand for … in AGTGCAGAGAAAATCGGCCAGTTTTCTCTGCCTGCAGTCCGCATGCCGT…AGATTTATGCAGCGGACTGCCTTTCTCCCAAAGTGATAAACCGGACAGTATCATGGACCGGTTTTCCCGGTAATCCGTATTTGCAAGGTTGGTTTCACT; site = the 11-nt target
Here the recorded recombinant barcode read abundance (log10) is given for each entry.
Returns: the value as a bare number; no unit string appended.

GCGATGTCTTGGGTTCTAACCTGTTGCCT (site GGGATGTCTAG)    0.514

Value lookup for recombinant barcode read abundance (log10); key = CACGACCCTTGGGTTCTAACCTGTTGCCT (site CAGGACCCTAG)
0.0694

Also need CTTAGGACTTGGGTTCTAACCTGTTGCCG (site CTTAGGACTAG) , thanks.
0.235

What would you report for CGGTGAACTTGGGTTCTAACCTGTTGCCT (site CTGTGAACTAG) ?
0.146

Next up: CCAAGTCCTTGGGTTCTAACCTGTTGCCA (site CCAAGTCCTTG)
0.0554

Also check GCTTGGACTTGGGTTCTAACCTGTTGCAT (site GCTTGGACTAT)
1.29
